Consider the following compounds; for each one, report its GI50.
Test system: OVCAR-5
Test: NCI tumour cell line growth inhibition, 48 h
The source made the active and inactive calls. No stated cut-off is given here; in the data, active = GI50 up to about 1.1 µM and inactive = higher.

Problem: Please look up its GI50: Nc1ccc(C23CC4CC(C2)CC(c2ccc(N)cc2)(C4)C3)cc1
Solution: 27.7 µM (inactive)

Problem: Moving on to the next compound: COc1ccc(/N=N/C(=N/NC(=O)c2cc(Cl)ccc2C(=O)c2ccccc2)c2ccc(N(CCC#N)CCC#N)cc2C)cc1
Solution: 18.2 µM (inactive)

Problem: Moving on to the next compound: Cn1c(=O)c2c(nc3n2CC(=O)N3CCCCl)n(C)c1=O
Solution: > 100 µM (inactive)

Problem: Moving on to the next compound: CSc1c(C#N)c(O)n(-c2ccc(C)cc2)c(=O)c1C(C)=O
Solution: 42.8 µM (inactive)

Problem: Moving on to the next compound: Clc1ccc2c(c1)CC1C[N+]3=C(CCCC3)C1=C2 (stereo unspecified)
Solution: > 100 µM (inactive)

Problem: Moving on to the next compound: CCOc1ccc(NC(=O)C(=O)CC(=O)c2c(C)[n+]([O-])c3ccccc3[n+]2[O-])cc1
Solution: > 100 µM (inactive)

Problem: Moving on to the next compound: CC(C)Cc1ccc(C(C)/C=C2\CCC(CN(C)C)C2=O)cc1 (stereo unspecified)
Solution: 23 µM (inactive)

Problem: Moving on to the next compound: NC(=O)CN1CCN(c2nc(N3CCCC3)c3nc(Cl)c(NCc4ccccc4)nc3n2)CC1
Solution: 10.1 µM (inactive)

Problem: Moving on to the next compound: Cc1cc(C)c2c(c1)CC1(Cc3c(ccc(C)c3C)C1=O)C2=O (stereo unspecified)
Solution: > 100 µM (inactive)

Problem: Moving on to the next compound: COC(=O)C1(C(=O)OC)N=C(C)OC1c1ccccc1O (stereo unspecified)
Solution: > 100 µM (inactive)

Problem: Moving on to the next compound: CCN(CC)Cc1ccc(C(=S)Nc2ccc(C)cc2)s1
Solution: 14.8 µM (inactive)

Problem: Moving on to the next compound: Nc1nc(Cl)c(C=O)c(NCC2(CO)CC(CCc3ccccc3)C2)n1 (stereo unspecified)
Solution: 15.8 µM (inactive)

Problem: Moving on to the next compound: CN(C)C(c1ccccc1)C1COC2Cc3ccccc3C1O2 (stereo unspecified)
Solution: > 100 µM (inactive)

Problem: Moving on to the next compound: C=C1COC(/C=C(\C)CC/C=C(\C)CCl)C1 (stereo unspecified)
Solution: > 100 µM (inactive)

Problem: Moving on to the next compound: CC(C)COC(=O)c1ccc(/N=C\c2ccc(/C=N/c3ccc(C(=O)OCC(C)C)cc3)cc2)cc1
Solution: > 100 µM (inactive)

Problem: Moving on to the next compound: C/C(=N\NS(=O)(=O)c1ccc(C)cc1)c1ccc[n+]([O-])n1
Solution: > 100 µM (inactive)

Problem: Moving on to the next compound: Cc1nc2ccc(S(=O)(=O)Nc3nccs3)cc2c(=O)n1NS(=O)(=O)c1nccs1
Solution: > 100 µM (inactive)

Problem: Moving on to the next compound: CC(=O)/C=C1\CC(=O)N(C)c2ccccc2N1
Solution: > 100 µM (inactive)

Problem: Moving on to the next compound: COC(=O)c1ccccc1/C=C1\Cc2ccc3c(c2C1=O)CCCC3
Solution: > 100 µM (inactive)

Problem: Moving on to the next compound: C[C@@]1(Cc2ccccc2)C(=O)N2[C@@H](CO)C(c3ccccc3)O[C@]2(C)c2ccccc21 (stereo partly specified)
Solution: > 100 µM (inactive)

Problem: Moving on to the next compound: O/N=C\C(=N/O)Nc1ccc(Cc2ccc(NC(/C=N\O)=N/O)cc2)cc1
Solution: 89.9 µM (inactive)
